test system: Vero-E6 cells; assay: Cell viability assay; assay type: cell-based, African green monkey; conditions: MTT, 72 h
READOUT TYPE: CC50

Prompt: Specify reported CC50 for the compound shown: NC(=O)[C@H](CCCN=C(N)CCl)NC(=O)c1ccccc1
Response: > 1000 µM

---

test system: MRC-5 cells; assay: Cell viability assay; assay type: cell-based, Human; conditions: MRC-5 cells, MTT, 72 h
READOUT TYPE: CC50 (µM)
Numbers only here, please. The scale is µM.

Prompt: Report CC50, nothing else, for this compound: NC(=O)[C@H](CCCN=C(N)CCl)NC(=O)c1ccccc1
Response: 949
